Ref: the METLIN SMRT retention time set (Domingo-Almenara et al. 2019)

Below: a set of entries, each annotated with reported RP-LC retention time.
Assay: gradient 5% acetonitrile 3 min, to 50% in 2 min, to 85% in 15 min, held 3 min, 100 µL/min
Details: column: Zorbax Extend-C18 2.1 x 50 mm; eluents: water / acetonitrile, 0.1% formic acid
# value in s; strip the unit string

>>> data_value("CC(C)C(=O)NCC12CCCC=C1NC(=O)CC2 (centres undefined)")
624
>>> data_value("Cc1ccc2[nH]cc(CCN3CC(C(=O)NCCc4ccc(F)cc4)CC3=O)c2c1 (centres undefined)")
821
>>> data_value("Cc1nc2cc(-c3noc(/C=C/c4ccco4)n3)ccc2o1")
1010
>>> data_value("O=C(NCc1ccc(Cl)cc1)C1CCN(C(=O)c2ncn3c2COC(c2ccccc2)C3)CC1 (centres undefined)")
802
>>> data_value("CCOCCCNC(=O)C1CCCN(S(=O)(=O)c2ccc(OC)c(C)c2)C1 (centres undefined)")
813
>>> data_value("Cc1ccc(Sc2nccnc2N2CCCC(C(=O)NCc3ccc(F)cc3)C2)cc1 (centres undefined)")
1100

// moving on: another record for RP-LC retention time
Consider Cc1ccccc1CNC(=O)Cn1nc(C(=O)N2CCCC2)c2ccccc21 . Its measured RP-LC retention time is 799
